# ASSAY NOTES: The drug is tested on WLS-006 corresponding to human gut metagenome with ENA study accession number: PRJEB37062 and ENA sample accession number: ERS12561741 for biotransformation under anaerobic condition. The drug concentrations were measured over 9 timepoints collected between 0 and 24 hours of incubation by liquid-chromatography-coupled mass spectrometry (LC–MS); further: call rule not given here
# RUN CONDITIONS: 2 µM
ENDPOINT: Bacterial Biotransformation

> print(dat)
                              line.notation                     endpoint           assay.value
1                 Nc1nc2ccc(OC(F)(F)F)cc2s1  Bacterial Biotransformation  Compound metabolized
2  O=C1[C@H](CC[C@H](O)c2ccc(F)cc2)[C@@H](c2ccc(O)cc2)N1c1ccc(F)cc1  Bacterial Biotransformation  Compound metabolized
3  CCCCC1=NC2(CCCC2)C(=O)N1Cc1ccc(-c2ccccc2-c2nnn[nH]2)cc1  Bacterial Biotransformation  Compound metabolized
